study.target: A2B receptors (Homo sapiens)
Sequence (P29275 whole entry): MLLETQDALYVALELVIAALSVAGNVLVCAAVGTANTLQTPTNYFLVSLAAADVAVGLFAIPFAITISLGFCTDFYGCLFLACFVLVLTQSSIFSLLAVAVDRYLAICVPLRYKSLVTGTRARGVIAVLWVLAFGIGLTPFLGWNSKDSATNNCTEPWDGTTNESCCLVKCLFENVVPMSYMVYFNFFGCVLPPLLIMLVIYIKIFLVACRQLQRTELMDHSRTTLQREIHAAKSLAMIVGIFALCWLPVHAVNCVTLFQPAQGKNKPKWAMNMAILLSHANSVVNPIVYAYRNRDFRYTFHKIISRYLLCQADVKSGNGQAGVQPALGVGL
assay.summary: functional cAMP (HTRF) assay, recombinant HEK293 cells expressing human A2B receptor, agonist NECA
pIC50: −log10 of the molar value.
reported.property: pIC50

Use these answered entries as a reference point.
COc1ccc(-c2cnn(C)c2)c2nc(NC(=O)c3ccc(CN4CCN(C)CC4)cc3)[nH]c12 ... < 6.00
COc1ccc(-c2cccnc2)c2nc(NC(=O)C3CC3)[nH]c12 ... > 7.00
COc1ccc(-c2ccccc2)c2[nH]c(NC(=O)c3ccc(C(=O)N(C)CCN(C)C)cc3)nc12 ... > 8.00
COc1ccc(-c2ccccc2)c2nc(NC(=O)c3cnc4cccnn34)[nH]c12 ... > 7.00
COc1ccc(-c2cnn(C)c2)c2nc(NC(=O)c3ccnc(N4CC[C@@](C)(O)C4)c3)[nH]c12 ... > 6.00
COc1ccc(-c2ccc(F)cc2)c2nc(NC(=O)c3ccc(N4C(=O)CCC4=O)cc3)[nH]c12 ... > 8.00

Task: Which measured pIC50 value corresponds to COCCN(C)C(=O)c1ccc(C(=O)Nc2nc3c(OC)ccc(-c4ccccc4)c3[nH]2)cc1 ?
Result: > 7.00
